- SYSTEM UNDER TEST: human EGF-R (Homo sapiens, UniProt P00533)
- Sequence (P00533 25-1210): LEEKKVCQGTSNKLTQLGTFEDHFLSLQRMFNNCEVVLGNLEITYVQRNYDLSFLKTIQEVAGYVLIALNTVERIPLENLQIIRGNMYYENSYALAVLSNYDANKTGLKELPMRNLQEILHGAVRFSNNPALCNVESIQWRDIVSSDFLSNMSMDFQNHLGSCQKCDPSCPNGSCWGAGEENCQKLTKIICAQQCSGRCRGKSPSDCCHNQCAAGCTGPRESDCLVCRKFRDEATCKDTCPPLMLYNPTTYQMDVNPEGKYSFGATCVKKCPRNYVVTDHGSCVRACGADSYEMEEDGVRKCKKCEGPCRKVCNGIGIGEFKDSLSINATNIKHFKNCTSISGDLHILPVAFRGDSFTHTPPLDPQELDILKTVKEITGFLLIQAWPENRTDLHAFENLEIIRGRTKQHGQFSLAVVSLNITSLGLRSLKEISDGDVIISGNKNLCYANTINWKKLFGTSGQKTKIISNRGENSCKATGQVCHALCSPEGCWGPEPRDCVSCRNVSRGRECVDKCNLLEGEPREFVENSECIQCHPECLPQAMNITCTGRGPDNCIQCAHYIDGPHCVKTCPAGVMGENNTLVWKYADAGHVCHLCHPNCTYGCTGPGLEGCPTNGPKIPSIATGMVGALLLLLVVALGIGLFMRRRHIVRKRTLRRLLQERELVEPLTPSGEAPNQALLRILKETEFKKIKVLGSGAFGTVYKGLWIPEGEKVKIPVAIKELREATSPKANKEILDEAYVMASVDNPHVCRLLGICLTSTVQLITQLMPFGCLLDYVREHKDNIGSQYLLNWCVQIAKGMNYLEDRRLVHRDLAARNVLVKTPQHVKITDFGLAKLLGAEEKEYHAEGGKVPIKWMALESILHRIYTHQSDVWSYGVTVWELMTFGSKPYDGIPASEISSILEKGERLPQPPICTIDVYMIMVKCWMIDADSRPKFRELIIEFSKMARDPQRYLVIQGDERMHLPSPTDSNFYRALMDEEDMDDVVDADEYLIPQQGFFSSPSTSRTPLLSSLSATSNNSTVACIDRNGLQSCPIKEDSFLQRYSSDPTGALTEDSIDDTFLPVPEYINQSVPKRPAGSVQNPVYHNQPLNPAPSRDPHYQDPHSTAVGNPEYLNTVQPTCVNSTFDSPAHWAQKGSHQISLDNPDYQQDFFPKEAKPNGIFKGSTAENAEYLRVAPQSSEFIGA
- ASSAY PROCEDURE: Inhibition of EGF-dependent proliferation of F/L-HERc cells
- SETTINGS: EGF (20 ng/ml), 48 hours
- Description: In this case, an interleukin-3 (IL-3)-dependent cell line of murine origin was used and was genetically modified in such a way that it expresses functional human EGF-R. Proliferation of these cells, which are called F/L-HERc, can therefore be stimulated either by murine IL-3 or by EGF (see von Ruden, T. et al. in EMBO J. 7, 2749-2756 (1988) and Pierce, J. H. et al. in Science 239, 628-631 (1988)). […]
pIC50: −log10 of the molar value.
RECORDED ENDPOINT: pIC50

• O=C(N1CCC(Nc2ncc3ncnc(Nc4ccc(F)c(Cl)c4)c3n2)CC1)C(F)(F)F = 7.82
• Fc1ccc(Nc2ncnc3cnc(N4CCN(c5ccccn5)CC4)nc23)cc1Cl = 6.56
• CN1[C@@H]2CC[C@H]1C[C@@H](Nc1ncc3ncnc(Nc4ccc(F)c(Cl)c4)c3n1)C2 = 6.86
• c1cnc2ccc(Nc3ncnc4cnc(N5CCOCC5)nc34)cc2c1 = 6.00
• O=C(CN1CCN(c2ncc3ncnc(Nc4ccc(F)c(Cl)c4)c3n2)CC1)N1CCCC1 = 6.70
• CN1CCC2(CC1)CN(c1ncc3ncnc(Nc4ccc(F)c(Cl)c4)c3n1)C2 = 6.86

----------
- SYSTEM UNDER TEST: human EGF-R (Homo sapiens, UniProt P00533)
- ASSAY PROCEDURE: Inhibition of EGF-dependent proliferation of F/L-HERc cells
- SETTINGS: EGF (20 ng/ml), 48 hours
RECORDED ENDPOINT: IC50 (nM)

* c1cc2cc(Nc3ncnc4cnc(N5CCOCC5)nc34)ccc2cn1 [1(14)] | 2300
* Cc1cccc(Nc2ncnc3cnc(-n4ccnc4)nc23)c1 [2(2)] | 400
* c1cc(Nc2ncnc3cnc(N4CCOCC4)nc23)c2cccnc2c1 [1(1)] | 2000
* CN1[C@@H]2CC[C@H]1C[C@H](Nc1ncc3ncnc(Nc4ccc(F)c(Cl)c4)c3n1)C2 [2(19)] | 28
* c1ccc2c(c1)CCC(Nc1ncnc3cnc(NC4CC4)nc13)C2 (stereo not shown) [1(16)] | 200
* Fc1ccc(Nc2ncnc3cnc(NN4CCOCC4)nc23)cc1Cl [Example 2(6)] | 3
* c1nc(Nc2ccc3[nH]ccc3c2)c2nc(N3CCOCC3)ncc2n1 [Example 1] | 21
* c1cncc(Nc2ncnc3cnc(N4CCOCC4)nc23)c1 [1(9)] | 6000
* c1cnc2c(Nc3ncnc4cnc(N5CCOCC5)nc34)cccc2c1 [1(3)] | 800
* Fc1ccc(Nc2ncnc3cnc(N4CCC(c5ccncc5)CC4)nc23)cc1Cl [2(9)] | 225

----------
- Test system: F/L-HERc cells
- ASSAY PROCEDURE: Inhibition of IL-3-dependent proliferation of F/L-HERc cells
- Format: cell-based
- SETTINGS: Mus musculus, murine IL-3, 48 hours
pIC50: −log10 of the molar value.
RECORDED ENDPOINT: pIC50

- c1cc(Nc2ncnc3cnc(N4CCOCC4)nc23)c2cccnc2c1 [1(1)]: 5.00
- Fc1ccc(Nc2ncnc3cnc(NN4CCOCC4)nc23)cc1Cl [Example 2(6)]: < 5.00
- CN1[C@@H]2CC[C@H]1C[C@H](Nc1ncc3ncnc(Nc4ccc(F)c(Cl)c4)c3n1)C2 [2(19)]: < 5.00
- O=C(N1CCC(Nc2ncc3ncnc(Nc4ccc(F)c(Cl)c4)c3n2)CC1)C(F)(F)F [2(8)]: < 4.70
- O[C@H]1CC[C@H](Nc2ncc3ncnc(Nc4ccc5[nH]ccc5c4)c3n2)CC1 [2(1)]: < 5.00

----------
- Test system: F/L-HERc cells
- ASSAY PROCEDURE: Inhibition of IL-3-dependent proliferation of F/L-HERc cells
- Format: cell-based
- SETTINGS: Mus musculus, murine IL-3, 48 hours
Consider the following compounds and their measured IC50 readings.
RECORDED ENDPOINT: IC50

* Fc1ccc(Nc2ncnc3cnc(N4CCN(c5ccccn5)CC4)nc23)cc1Cl [2(10)] | > 20 µM
* Clc1cccc(CNc2ncnc3cnc(N4CCOCC4)nc23)c1 [1(15)] | > 10 µM
* Fc1ccc(Nc2ncnc3cnc(N4CCC(c5ccncc5)CC4)nc23)cc1Cl [2(9)] | > 20 µM

----------
- Test system: F/L-HERc cells
- ASSAY PROCEDURE: Inhibition of IL-3-dependent proliferation of F/L-HERc cells
- Format: cell-based
- SETTINGS: Mus musculus, murine IL-3, 48 hours
pIC50: −log10 of the molar value.
Consider the following compounds and their measured pIC50 readings.
RECORDED ENDPOINT: pIC50

• c1cc2cc(Nc3ncnc4cnc(N5CCOCC5)nc34)ccc2cn1 = 5.66
• Fc1ccc(Nc2ncnc3cnc(NCc4ccncc4)nc23)cc1Cl = < 6.00
• Fc1ccc(Nc2ncnc3cnc(NCc4ccccn4)nc23)cc1Cl = < 6.00
• O=C(CN1CCN(c2ncc3ncnc(Nc4ccc(F)c(Cl)c4)c3n2)CC1)N1CCOCC1 = < 5.00
• c1nc(Nc2ccc3[nH]ccc3c2)c2nc(N3CCOCC3)ncc2n1 = 5.00
• CN1[C@@H]2CC[C@H]1C[C@@H](Nc1ncc3ncnc(Nc4ccc(F)c(Cl)c4)c3n1)C2 = < 5.00
• CN1CCC2(CC1)CN(c1ncc3ncnc(Nc4ccc(F)c(Cl)c4)c3n1)C2 = < 5.00
• c1cc(Nc2ncnc3cnc(N4CCOCC4)nc23)ccn1 = 5.05
• O=C(CN1CCN(c2ncc3ncnc(Nc4ccc(F)c(Cl)c4)c3n2)CC1)N1CCCC1 = < 5.00

----------
- SYSTEM UNDER TEST: human EGF-R (Homo sapiens, UniProt P00533)
- ASSAY PROCEDURE: Inhibition of EGF-dependent proliferation of F/L-HERc cells
- SETTINGS: EGF (20 ng/ml), 48 hours
- Description: In this case, an interleukin-3 (IL-3)-dependent cell line of murine origin was used and was genetically modified in such a way that it expresses functional human EGF-R. Proliferation of these cells, which are called F/L-HERc, can therefore be stimulated either by murine IL-3 or by EGF (see von Ruden, T. et al. in EMBO J. 7, 2749-2756 (1988) and Pierce, J. H. et al. in Science 239, 628-631 (1988)). […]
pIC50: −log10 of the molar value.
Consider the following molecules and their measured pIC50 readings.
RECORDED ENDPOINT: pIC50

• O=C(CN1CCN(c2ncc3ncnc(Nc4ccc(F)c(Cl)c4)c3n2)CC1)N1CCOCC1 [2(5)] = 7.40
• c1cc(Nc2ncnc3cnc(N4CCOCC4)nc23)c2nsnc2c1 [1(5)] = 6.00
• NCc1cccc(CNc2ncc3ncnc(Nc4ccc(F)c(Cl)c4)c3n2)c1 [2(11)] = 6.72
• Fc1ccc(Nc2ncnc3cnc(NCc4ccccn4)nc23)cc1Cl [2(7)] = 6.76
• Clc1cccc(CNc2ncnc3cnc(N4CCOCC4)nc23)c1 [1(15)] = 9.00
• O[C@H]1CC[C@H](Nc2ncc3ncnc(Nc4ccc5[nH]ccc5c4)c3n2)CC1 [2(1)] = 9.00
• c1nc(Nc2ccc3[nH]ncc3c2)c2nc(N3CCOCC3)ncc2n1 [1(4)] = 6.90
• NCc1ccc(CNc2ncc3ncnc(Nc4ccc(F)c(Cl)c4)c3n2)cc1 [2(12)] = 7.01
• c1cc(Nc2ncnc3cnc(N4CCOCC4)nc23)ccn1 [1(13)] = 5.00
• Fc1ccc(Nc2ncnc3cnc(NCc4ccncc4)nc23)cc1Cl [Example 2] = 7.30
